B1: library; a variant is named by its letters at X, in order (parent)
chain: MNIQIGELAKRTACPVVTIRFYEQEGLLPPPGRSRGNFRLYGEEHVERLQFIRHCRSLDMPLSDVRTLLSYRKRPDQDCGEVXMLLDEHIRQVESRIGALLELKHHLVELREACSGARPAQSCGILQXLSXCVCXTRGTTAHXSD

Variants of: B1
MEASUREMENT_NOTES: sfGFP reporter fluorescence (15 h) (µM FITC); higher = higher leak
CONDITION_NOTES: library round: Round 2; ligand: none
MEASUREMENT_TYPE: sfGFP reporter fluorescence

{"SEQUENCE_INPUT": "MNIQIGELAKRTACPVVTIRFYEQEGLLPPPGRSRGNFRLYGEEHVERLQFIRHCRSLDMPLSDVRTLLSYRKRPDQDCGEVTMLLDEHIRQVESRIGALLELKHHLVELREACSGARPAQSCGILQGLSNCVCRTRGTTAHASD [TGNRA]", "OBS_VALUE": 0.0608}
{"SEQUENCE_INPUT": "MNIQIGELAKRTACPVVTIRFYEQEGLLPPPGRSRGNFRLYGEEHVERLQFIRHCRSLDMPLSDVRTLLSYRKRPDQDCGEVNMLLDEHLRQVESRIGALLELKHHLVELREACSGARPAQSCGLLQGLSDCVCDTRGTTAHMSD [NGDDM I90L I125L]", "OBS_VALUE": 0.0615}

Kindly consider the entry below.
Which sfGFP reporter fluorescence value belongs to MNIQIGELAKRTACPVVTIRFYEQEGLLPPPGRSRGNFRLYGEEHVERLQFIRHCRSLDMPLSDVRTLLSYRKRPDQDCGEVNMLLDEHIRQVESRIGALLELKHHLVELREACSGARPAQSCGILQGLSACVVDTRGTTAHTSD [NGADT C134V] ?
0.103
